Recorded values, source the supplement of paper PMC9112550.

System: Escherichia coli TOP10;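 note: peptides expressed intracellularly from a pBAD plasmid library in pooled LB shake-flask culture, induced with 0.3% L-arabinose, DNA abundance read by NGS, three biological replicates, DESeq2 with apeglm shrinkage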
assayRemarks: shrunken log2 fold change of peptide-encoding DNA abundance (4.5 h post-induction vs induction); higher = less antimicrobial activity (less host growth inhibition)
experimentalSetup: time post-induction: 4.5 h; library: site-saturation at positions 5, 18, 19, 20
endpointName: shrunken log2 fold change

RRIRWRPPRLPRPRPRPKGYPRP; 0.0648

Lab note: each sequence below needs its shrunken log2 fold change filled in.
1. RRIRWRPPRLPRPRPRPYKSPRP
2. RRIRVRPPRLPRPRPRPPPTPRP

Outgoing:
[-0.144, 0.933]

Fill in shrunken log2 fold change for each of the 2 sequences listed.
1. RRIRIRPPRLPRPRPRPLWGPRP
2. RRIRWRPPRLPRPRPRPLRKPRP

Outgoing:
1. 0.0579
2. 0.944
